Data provenance is PubChem BioAssay (NCI).

System: TK-10 renal
Test: NCI-60 one-dose screen, 48 h
Conditions: 10 µM unless noted
About 83,000 compounds went through this panel and 20% of them were active in at least one assay; those are over-represented in the sample as a whole. Calls of active or inactive are those of the source. How the source made its calls: active means growth percent below 10; inactive means the rest.
Please state which outcome applies, choosing from active, inactive

Entry c1ccc(C2NCCNC2c2ccccc2)cc1 (stereo not drawn) : call = ?
inactive

Continue with O=[N+]([O-])c1ccc(C(Br)c2ccc([N+](=O)[O-])cc2)cc1
inactive

Repeat with O=C1C=CC(=O)N1c1cc(Cl)c(Cl)cc1Cl
inactive

Continue with Cc1cc(I)nc2ccccc12
inactive

Param item: COC1CC(C)C(OC)c2cc(O)cc(c2O)NC(=O)/C(C)=C/C=C\C(C)C(OC(N)=O)/C(C)=C\C(C)C1OC (stereo not drawn)
inactive

Moving on to the next compound: Cn1c(-c2ccccc2)c(/C=C/C2=[N+](C)c3ccccc3C2(C)C)c2ccccc21
active

Can you handle CC(C)N=C(N)/N=C(\N)Nc1ccc2ccc3ccccc3c2c1 next?
active

Item: CC(/C=N/NC(N)=S)Cc1ccc(C(C)C)cc1 (stereo not drawn)
inactive

Can you handle O=C(O)c1cc2c(s1)C(=O)c1sccc1C2=O next?
inactive

Next up: CN(C)c1ccc(/C=C/c2nccc3ccccc23)cc1
inactive

Also N#CC1c2ccccc2C=CN1C(=O)CCCl (stereo not drawn) ?
inactive

Let us now turn to O=C(Nc1ccc(Cl)c(Cl)c1)Nc1ccccc1O
inactive

Repeat for the following compound: COc1cc(/C=C/C(=O)CC(=O)/C=C/c2ccc(O)c(OC)c2)ccc1O
inactive
